Source listed as patent US10662235B2.

Assay: Thermal stability by differential scanning calorimetry
Format: physicochemical
Conditions: cysteine-NEM conjugates, second identical scan
readout_kind: Second Scan Tm (°C)
Unit °C implied. Number only.

Completed entries (count: 3):
• N6C (protein) LPAPKCLVVSEVTEDSARLSWDDPWAFYESFLIQYQESEKVGEAIVLTVPGSERSYDLTGLKPGTEYTVSIYGVHNVYKDTNMRGLPLSAIFTT = 70
• S89C (protein, EGFR binding FN3 domain; EGFR-binding FN3 domain) chain 1: MLPAPKNLVVSEVTEDSARLSWDDPWAFYESFLIQYQESEKVGEAIVLTVPGSERSYDLTGLKPGTEYTVSIYGVHNVYKDTNMRGLPLCAIFTT chain 2: LPAPKNLVVSEVTEDSARLSWDDPWAFYESFLIQYQESEKVGEAIVLTVPGSERSYDLTGLKPGTEYTVSIYGVHNVYKDTNMRGLPLCAIFTT = 71
• T68C (protein, EGFR binding FN3 domain; EGFR-binding FN3 domain) chain 1: MLPAPKCLVVSEVTEDSARLSWDDPWAFYESFLIQYQESEKVGEAIVLTVPGSERSYDLTGLKPGTEYTVSIYGVHNVYKDTNMRGLPLSAIFTT chain 2: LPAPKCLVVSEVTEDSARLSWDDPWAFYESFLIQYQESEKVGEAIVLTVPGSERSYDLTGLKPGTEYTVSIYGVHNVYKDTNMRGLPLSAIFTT = 72

// next item, Second Scan Tm requested
-- ask Supply Second Scan Tm value. Item: S16C (protein, EGFR binding FN3 domain; EGFR-binding FN3 domain) chain 1: MLPAPKNLVVSEVTEDCARLSWDDPWAFYESFLIQYQESEKVGEAIVLTVPGSERSYDLTGLKPGTEYTVSIYGVHNVYKDTNMRGLPLSAIFTT chain 2: LPAPKNLVVSEVTEDCARLSWDDPWAFYESFLIQYQESEKVGEAIVLTVPGSERSYDLTGLKPGTEYTVSIYGVHNVYKDTNMRGLPLSAIFTT
-- reply 68
